- study target: CDK2/Cyclin A (Homo sapiens)
- procedure text: Inhibition of CDK2/Cyclin A Retinoblastoma Kinase Activity
- Format: biochemical
- assay setup: at 0.03 μM
measurement label: CDK2 % Inhibition at 0.03 μM
Dear colleague, please send the value followed by its unit.

Please review the entries below; each comes with its answer.
{"molecule": "Nc1nc(NC2CCN(C(=S)Oc3ccc(F)cc3)CC2)sc1C(=O)c1c(F)cccc1F", "CDK2 % Inhibition at 0.03 μM": "90%"}
{"molecule": "Cc1ccc(C)c(C(=O)N2CCC(Nc3nc(N)c(C(=O)c4c(F)cccc4F)s3)CC2)c1", "CDK2 % Inhibition at 0.03 μM": "14%"}

Cc1cc(C)c2c(c1C(=O)N1CCC(Nc3nc(N)c(C(=O)c4c(F)cccc4F)s3)CC1)CC(C)(C)C2=O has a reported CDK2 % Inhibition at 0.03 μM of 2%

CC(Oc1ccccc1)C(=O)N1CCC(Nc2nc(N)c(C(=O)c3c(F)cccc3F)s2)CC1 (stereo not shown) [Example R159] has a reported CDK2 % Inhibition at 0.03 μM of 14%
